- Test system: SR
- assay_overview: NCI tumour cell line growth inhibition, 48 h
Active and inactive are the calls of the source. No stated cut-off is given here; in the data, active = GI50 up to about 1.1 µM and inactive = higher.
endpoint_name: GI50

Below: 2 compounds and their reported GI50.
# item_smiles, GI50
data = [
    ("Nc1ccccc1-c1noc(=O)[nH]1", "> 100 µM (inactive)"),
    ("CN(C)c1ccc(/C=C/c2ccnc3ccccc23)cc1", "30.5 µM (inactive)"),
]

The record that follows has no GI50 shown yet.
// sample "C[C@H](OCc1ccccc1)C(=O)N1CCS(=O)(=O)N2CCC[C@@H]2C1=O" , its GI50 was > 100 µM (inactive)

###

Measured GI50 accompanies every entry in the list below.
- Tested on: OVCAR-8
- assay_overview: NCI tumour cell line growth inhibition, 48 h
Calls of active or inactive are those of the source. No stated cut-off is given here; in the data, active = GI50 up to about 1.1 µM and inactive = higher.

Below: 5 compounds and their reported GI50.
# compound, GI50
measured = [
    ("OCC1OC(c2cccc3cc(O)c(O)cc23)CC1O (stereo unspecified)", "> 100 µM (inactive)"),
    ("O=C(O)c1ccc(/N=N/c2cc(S(=O)(=O)O)c3cccnc3c2O)cc1", "> 100 µM (inactive)"),
    ("CCN1C(=O)C/C(=C\\C(C)=O)Nc2ccccc21", "> 100 µM (inactive)"),
    ("COc1cccc2c1Cc1cc(-c3ccccc3)[n+](C)n1-2", "6.84 µM (inactive)"),
    ("COc1c2c3c4c(c(OC)c(=O)c5c(O)cc(OC)c(c6c(OC)cc(O)c(c1=O)c63)c54)C(C(C)O)C2C(C)=O (stereo unspecified)", "0.321 µM (active)"),
]

The record that follows has no GI50 shown yet.
Kindly note: OVCAR-8, "S=c1c2cn[nH]c2nc2scc(-c3ccc(Cl)cc3)n12" , GI50 value reported: 16 µM (inactive)

###

- System: HL-60
- assay_overview: NCI tumour cell line growth inhibition, 48 h
Activity calls are given as the source filed them. No stated cut-off is given here; in the data, active = GI50 up to about 1.1 µM and inactive = higher.
Valid outcomes are listed here; reply with one: active, inactive

# molecule, assigned_label
data = [
    ("O=C(NCCN1CCOCC1)c1ccc(I)cc1", "inactive"),
    ("NC(=O)c1cc(C2OC(CO)C(O)C2O)nn1-c1ccc([N+](=O)[O-])cc1 (centres undefined)", "inactive"),
]

Now for a further molecule.
Task: State the result this test recorded for "CN(C)CCNCc1c2ccccc2c(CNCCN(C)C)c2ccccc12" .
Output: inactive

###

- System: RXF 631
- assay_overview: NCI tumour cell line growth inhibition, 48 h
Calls of active or inactive are those of the source. No stated cut-off is given here; in the data, active = GI50 up to about 1.1 µM and inactive = higher.
endpoint_name: GI50

# compound, endpoint_value
data = [
    ("CCCCCCCCC(C)CCCCCCCCC(=O)OCC(COP(=O)([O-])OCC[N+](C)(C)C)OC(=O)CCCCCCCCC(C)CCCCCCCC (configuration not stated)", "> 100 µM (inactive)"),
    ("COc1cc2ccc(CC(=O)O)cc2cc1OC", "> 100 µM (inactive)"),
    ("N#Cc1c(N)oc2cc3c(C#N)c(N)oc3cc12", "> 100 µM (inactive)"),
]

// sample "O=[N+]([O-])c1cc(Cl)ccc1OCc1ccccc1" , its GI50 was > 100 µM (inactive)

// sample CC(=O)c1cccc(NC(=O)C(=O)C(C2OC(=O)c3ccccc32)[N+](=O)[O-])c1 (configuration not stated) , its GI50 was > 100 µM (inactive)

// sample CC(=O)C1=CCC2c3[nH]c4ccccc4c3CCN2C1 (configuration not stated) , its GI50 was 45.4 µM (inactive)

// sample CCN(CC)CCCC(C)NC(=O)c1ccc2c(c1)C(=O)c1ccccc1C2=O (configuration not stated) , its GI50 was 24.1 µM (inactive)

// sample CCCCNC(=O)C1C(=O)N(CCCC)C(=O)/C1=N\N (configuration not stated) , its GI50 was > 100 µM (inactive)

// sample Cc1[nH]c2ccccc2c1C1Cc2ccccc2N1C(=O)/C=C/C(=O)O (configuration not stated) , its GI50 was 18.4 µM (inactive)

// sample "CN(C)CCC(=O)N1C/C(=C\c2ccc(Cl)c(Cl)c2)C(=O)/C(=C/c2ccc(Cl)c(Cl)c2)C1" , its GI50 was 0.455 µM (active)

// sample "CN(C)/N=N/c1[nH]cnc1C(N)=O" , its GI50 was 54.1 µM (inactive)

// sample "S=C(Nc1ccccc1)N(/N=C/C=C/c1ccccc1)c1nnc(-c2ccccc2)c(-c2ccccc2)n1" , its GI50 was 80.7 µM (inactive)
